For each record, write down the corresponding absorbance 450 nm minus 540 nm.
- target.of.assay: T1, peptide GDVFPSYTCTCLKG (SEQ ID NO:84), N-terminally biotinylated (human, cysteine pairing not given here)
- T1 construct: Human lactadherin 14-mer with part of the RGD domain at the N-terminus
- T1 peptide: Biotin-GDVFPSYTCTCLKG
- assay.protocol: ELISA, biotin-peptide on neutravidin plate, antibody 1 ug/ml
Ends that are not written are not given here. * marks the point of attachment. Biotin = O=C1N[C@H]2[C@H](CS[C@H]2CCCCC(=O)*)N1
One number for each entry, in absorbance.

Hello, I would appreciate it if you could give absorbance 450 nm minus 540 nm for each entry below.
1. anti-lactadherin antibody 346B6 (antibody, IgG1, V domains shown, VH identical to that of 311A7; also called hybridoma 346B6; LMBP 9490CB) VH: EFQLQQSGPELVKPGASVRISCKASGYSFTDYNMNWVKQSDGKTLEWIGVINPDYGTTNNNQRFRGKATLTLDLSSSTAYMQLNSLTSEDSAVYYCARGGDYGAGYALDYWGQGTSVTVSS VL: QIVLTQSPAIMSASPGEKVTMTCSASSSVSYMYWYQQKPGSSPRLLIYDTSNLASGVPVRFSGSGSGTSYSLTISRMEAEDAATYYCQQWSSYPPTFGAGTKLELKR
2. anti-lactadherin antibody 416H9 (antibody, IgG1, V domains shown, also called hybridoma 416H9; LMBP 9492CB) VH: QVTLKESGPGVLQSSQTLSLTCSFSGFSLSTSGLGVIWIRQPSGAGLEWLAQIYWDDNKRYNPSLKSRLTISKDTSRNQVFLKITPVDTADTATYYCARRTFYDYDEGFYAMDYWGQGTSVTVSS VL: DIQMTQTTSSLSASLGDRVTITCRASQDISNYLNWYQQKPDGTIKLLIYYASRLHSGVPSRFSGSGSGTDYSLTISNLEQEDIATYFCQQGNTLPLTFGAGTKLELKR
3. anti-lactadherin antibody 311A7 (antibody, IgG1, V domains shown, also called murine 311A7; hybridoma 311A7) VH: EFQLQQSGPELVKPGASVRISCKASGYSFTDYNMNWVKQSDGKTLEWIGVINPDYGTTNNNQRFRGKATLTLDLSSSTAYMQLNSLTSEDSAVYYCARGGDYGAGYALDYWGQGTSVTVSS VL: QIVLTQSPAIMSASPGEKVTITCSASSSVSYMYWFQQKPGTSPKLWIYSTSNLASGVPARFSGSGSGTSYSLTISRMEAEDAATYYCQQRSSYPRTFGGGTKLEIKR

1: 0.02; 2: 0.03; 3: 0.02
